Reference source for all entries: patent US20140235701

Biological target: NGF (nerve growth factor) (Homo sapiens, UniProt P01138 P01138:122-241)
Sequence (P01138 122-241, one chain of several): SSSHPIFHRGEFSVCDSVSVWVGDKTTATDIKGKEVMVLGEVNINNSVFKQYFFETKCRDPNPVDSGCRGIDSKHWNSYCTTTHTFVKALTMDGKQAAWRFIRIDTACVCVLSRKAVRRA
Experiment: cell_activity; neurite; TF-1 0.031
Conditions: tags: R&D Systems; chain copies: 2
Procedure: With the neurite length per cell obtained by the addition of NGF alone as inhibitory activity 0%, and that of the cell obtained by NGF free culture for 2 days as inhibitory activity 100%, the inhibitory activity of the aptamer was calculated from the neurite length per cell obtained by culturing with the addition of NGF and the aptamer in mixture. […]
quantity_kind: IC50
Write the numeric value and append its unit.

Value of measured IC50 for the entry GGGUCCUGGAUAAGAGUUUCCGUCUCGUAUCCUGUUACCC (ssRNA, as 82(1) except 2'-OMe U4,C6,U11,C21,U23,C26,U30,C32,U35,C38-40) [SEQ ID NO: 82(20)] : 0.244 nM
